biological target: Histone-lysine N-methyltransferase, H3 lysine-79 specific (Homo sapiens); assay: Inhibition of DOT1L in human MOLM13 cells assessed as suppression of HoxA9 gene after 72 hrs by luciferase reporter gene assay; format: cell-based
Sequence (Q8TEK3 whole entry): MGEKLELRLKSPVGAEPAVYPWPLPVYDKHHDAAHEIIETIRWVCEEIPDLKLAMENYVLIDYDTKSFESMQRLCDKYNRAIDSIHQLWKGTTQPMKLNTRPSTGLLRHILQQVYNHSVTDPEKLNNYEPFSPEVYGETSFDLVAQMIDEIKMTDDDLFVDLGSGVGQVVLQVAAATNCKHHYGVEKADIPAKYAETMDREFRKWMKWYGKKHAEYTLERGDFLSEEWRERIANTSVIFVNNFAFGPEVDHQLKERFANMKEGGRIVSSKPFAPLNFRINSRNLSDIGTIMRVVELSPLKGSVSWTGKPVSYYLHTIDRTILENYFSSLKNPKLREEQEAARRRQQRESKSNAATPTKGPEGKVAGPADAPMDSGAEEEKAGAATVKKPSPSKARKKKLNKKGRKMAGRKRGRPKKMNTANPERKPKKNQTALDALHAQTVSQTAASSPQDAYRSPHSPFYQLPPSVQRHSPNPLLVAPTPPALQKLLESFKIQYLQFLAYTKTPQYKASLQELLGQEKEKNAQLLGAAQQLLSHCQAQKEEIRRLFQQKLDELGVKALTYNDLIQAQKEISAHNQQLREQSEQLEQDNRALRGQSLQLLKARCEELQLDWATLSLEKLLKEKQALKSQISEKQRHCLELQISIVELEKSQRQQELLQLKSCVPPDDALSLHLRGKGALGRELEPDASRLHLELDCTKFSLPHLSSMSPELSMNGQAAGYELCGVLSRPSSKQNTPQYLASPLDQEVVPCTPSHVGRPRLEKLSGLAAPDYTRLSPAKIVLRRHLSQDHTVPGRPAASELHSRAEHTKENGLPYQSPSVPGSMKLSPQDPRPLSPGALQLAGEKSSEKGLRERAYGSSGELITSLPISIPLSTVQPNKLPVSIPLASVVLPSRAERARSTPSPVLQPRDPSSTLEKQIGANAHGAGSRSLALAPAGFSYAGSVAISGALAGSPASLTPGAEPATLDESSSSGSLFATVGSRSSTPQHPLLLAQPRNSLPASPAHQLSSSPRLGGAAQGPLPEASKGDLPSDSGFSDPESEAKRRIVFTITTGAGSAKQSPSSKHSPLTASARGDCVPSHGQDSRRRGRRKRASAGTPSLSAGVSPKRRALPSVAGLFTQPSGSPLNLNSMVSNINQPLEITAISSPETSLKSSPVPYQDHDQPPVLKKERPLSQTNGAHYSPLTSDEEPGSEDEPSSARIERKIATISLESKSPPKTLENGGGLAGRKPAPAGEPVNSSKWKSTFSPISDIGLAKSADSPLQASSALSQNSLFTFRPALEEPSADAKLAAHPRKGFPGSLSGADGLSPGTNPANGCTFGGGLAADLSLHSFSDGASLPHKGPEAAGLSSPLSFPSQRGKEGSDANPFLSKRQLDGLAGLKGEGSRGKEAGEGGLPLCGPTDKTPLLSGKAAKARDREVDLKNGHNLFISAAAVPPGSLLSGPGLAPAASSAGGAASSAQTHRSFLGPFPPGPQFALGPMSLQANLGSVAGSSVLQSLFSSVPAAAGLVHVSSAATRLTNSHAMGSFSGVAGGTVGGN

{"CHEMICAL SMILES": "Cc1ncccc1-c1c(Cl)sc2ccc(NC(=O)NCC(=O)NCCCN(C)[C@@H]3CCCN(c4ncnc5[nH]ccc45)C3)cc12", "IC50": "17 nM"}

====

biological target: UniProt Q8TEK3; experiment: Inhibition of DOT1L (2 to 416 residues) (unknown origin) using biotinylated nucleosomes as substrate preincubated for 30 mins followed by substrate addition in presence of [3H-Me]SAM by scintillation proximity assay; settings: read-out: IC50
Each record here notes measured IC50.

{"CHEMICAL SMILES": "Cc1ncccc1-c1c(Cl)sc2ccc(NC(=O)NCC(=O)NCCCN(C)[C@@H]3CCCN(c4ncnc5[nH]ccc45)C3)cc12", "TARGET DESC": "UniProt Q8TEK3", "READING QUALIFIER": "<", "IC50, nM": 0.1}
{"CHEMICAL SMILES": "Nc1ncnc2c1ncn2[C@@H]1O[C@H](CO)[C@@H](O)[C@H]1O", "TARGET DESC": "UniProt Q8TEK3", "READING QUALIFIER": "=", "IC50, nM": 100000}
{"CHEMICAL SMILES": "CN[C@@H]1CCCN(c2ncnc3[nH]ccc23)C1", "TARGET DESC": "UniProt Q8TEK3", "READING QUALIFIER": "=", "IC50, nM": 141000}
{"CHEMICAL SMILES": "O=C(CNC(=O)Nc1ccc2ccn(-c3ccccc3Cl)c2c1)NCCCN[C@@H]1CCCN(c2ncnc3[nH]ccc23)C1", "TARGET DESC": "UniProt Q8TEK3", "READING QUALIFIER": "=", "IC50, nM": 4}
{"CHEMICAL SMILES": "O=C(CNC(=O)Nc1ccc2ccn(-c3ccccc3Cl)c2c1)NCCCCN[C@@H]1CCCN(c2ncnc3[nH]ccc23)C1", "TARGET DESC": "UniProt Q8TEK3", "READING QUALIFIER": "=", "IC50, nM": 4}
{"CHEMICAL SMILES": "N[C@@H]1CCCN(c2ncnc3[nH]ccc23)C1", "TARGET DESC": "UniProt Q8TEK3", "READING QUALIFIER": "=", "IC50, nM": 240000}
{"CHEMICAL SMILES": "CN(CCCNC(=O)CNC(=O)Nc1ccc2ccn(-c3ccccc3Cl)c2c1)[C@@H]1CCCN(c2ncnc3[nH]ccc23)C1", "TARGET DESC": "UniProt Q8TEK3", "READING QUALIFIER": "=", "IC50, nM": 0.15}

====

biological target: Histone-lysine N-methyltransferase, H3 lysine-79 specific (Homo sapiens); test: Inhibition of DOT1L in human HeLa cells assessed as reduction in H3K79me2 level after 72 hrs by ELISA; format: cell-based
pIC50: −log10 of the molar value.
READOUT KIND: pIC50

{"CHEMICAL SMILES": "Cc1ncccc1-c1c(Cl)sc2ccc(NC(=O)NCC(=O)NCCCN(C)[C@@H]3CCCN(c4ncnc5[nH]ccc45)C3)cc12", "READOUT KIND": "pIC50", "MEASURED RESULT": 8.52}
